Tested on: 653999-131-R-J2-PDC complex spheroid viability
Assay: Anticancer human tumor 653999-131-R-J2-PDC patient-derived lung adenocarcinoma cell line growth inhibition
Details: second compound 0.316 µM; first compound 3.16 µM; stronger effect = lower value
Text: Multicellular complex tumor spheroid response to LSD1 Inhibitor Iadademstat in combination with a variety of drugs and investigational agents in selected tumor cell lines The current study was undertaken to assess response to LSD1 inhibitors in combination with standard-of-care drugs and investigational agents in solid tumor complex spheroid models as well as in the K-562 leukemia. […] Compounds. […] If the clinical Cmax for an agent had not been determined, the highest concentration tested was 10 microM. […]
Binarize viability, T/C at 60%; below is T, at or above is F.

{"MOLECULE": "O=C(c1cc(Cc2n[nH]c(=O)c3ccccc23)ccc1F)N1CCN(C(=O)C2CC2)CC1 + NC1CCC(NC2CC2c2ccccc2)CC1", "CLASS": "F"}
{"MOLECULE": "COc1ccc([C@@H](O)c2cc(-c3ncnc4cc(N5CCOCC5)ccc34)c(F)cc2Cl)nn1 + NC1CCC(NC2CC2c2ccccc2)CC1", "CLASS": "T"}
{"MOLECULE": "COc1ccc([C@@H](O)c2cc(-c3ncnc4cc(N5CCOCC5)ccc34)c(F)cc2Cl)nn1 + NC1CC1c1ccc(-c2cccc(O)c2)cc1", "CLASS": "T"}
{"MOLECULE": "CC1(C)CCC(CN2CCN(c3ccc(C(=O)NS(=O)(=O)c4ccc(NCC5CCOCC5)c([N+](=O)[O-])c4)c(Oc4cnc5[nH]ccc5c4)c3)CC2)=C(c2ccc(Cl)cc2)C1 + NC1CCC(NC2CC2c2ccccc2)CC1", "CLASS": "F"}
{"MOLECULE": "CC1COCCN1c1cc(C2(S(C)(=N)=O)CC2)nc(-c2ccnc3[nH]ccc23)n1 (stereo not given) + NC1CCC(NC2CC2c2ccccc2)CC1", "CLASS": "T"}
{"MOLECULE": "CC1(C)CCC(CN2CCN(c3ccc(C(=O)NS(=O)(=O)c4ccc(NCC5CCOCC5)c([N+](=O)[O-])c4)c(Oc4cnc5[nH]ccc5c4)c3)CC2)=C(c2ccc(Cl)cc2)C1 + NC1CC1c1ccc(-c2cccc(O)c2)cc1", "CLASS": "F"}
{"MOLECULE": "CC1COCCN1c1cc(C2(S(C)(=N)=O)CC2)nc(-c2ccnc3[nH]ccc23)n1 (stereo not given) + NC1CC1c1ccc(-c2cccc(O)c2)cc1", "CLASS": "T"}
{"MOLECULE": "CC(C)c1c(-c2ccccc2)nc2c(C#N)c[nH]n2c1=O + NC1CC1c1ccc(-c2cccc(O)c2)cc1", "CLASS": "F"}
{"MOLECULE": "CC(C)c1c(-c2ccccc2)nc2c(C#N)c[nH]n2c1=O + NC1CCC(NC2CC2c2ccccc2)CC1", "CLASS": "F"}

----------
test system: 653999-131-R-J2-PDC complex spheroid viability; assay: Anticancer human tumor 653999-131-R-J2-PDC cell line growth inhibition; conditions: second compound 3.16 µM; first compound 0.01 µM; stronger effect = lower value;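 further: spheroids exposed to agents for seven days before readout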

{"COMPOUND": "O=C(C=Cn1cnc(-c2cc(C(F)(F)F)cc(C(F)(F)F)c2)n1)NNc1cnccn1 + NC1CC1c1ccc(-c2cccc(O)c2)cc1", "viability, T/C / %": 45.8}
{"COMPOUND": "CC(C)CC(NC(=O)C(Cc1ccccc1)NC(=O)c1cnccn1)B(O)O (stereo unspecified) + NC1CCC(NC2CC2c2ccccc2)CC1", "viability, T/C / %": 3.37}
{"COMPOUND": "CC(C)CC(NC(=O)CNC(=O)c1cc(Cl)ccc1Cl)B1OC(=O)CC(CC(=O)O)(C(=O)O)O1 (stereo unspecified) + NC1CCC(NC2CC2c2ccccc2)CC1", "viability, T/C / %": 53.1}
{"COMPOUND": "COc1cc(Nc2ncc3c(n2)-c2ccc(Cl)cc2C(c2c(F)cccc2OC)=NC3)ccc1C(=O)O + NC1CC1c1ccc(-c2cccc(O)c2)cc1", "viability, T/C / %": 58.9}
{"COMPOUND": "CC(C)CC(NC(=O)CNC(=O)c1cc(Cl)ccc1Cl)B1OC(=O)CC(CC(=O)O)(C(=O)O)O1 (stereo unspecified) + NC1CC1c1ccc(-c2cccc(O)c2)cc1", "viability, T/C / %": 61.7}
{"COMPOUND": "Nc1ncn(C2CC(O)C(CO)O2)c(=O)n1 (stereo unspecified) + NC1CC1c1ccc(-c2cccc(O)c2)cc1", "viability, T/C / %": 112}
{"COMPOUND": "CC[C@@]1(O)C(=O)OCc2c1cc1n(c2=O)Cc2cc3c(CN(C)C)c(O)ccc3nc2-1 + NC1CCC(NC2CC2c2ccccc2)CC1", "viability, T/C / %": 44.1}
{"COMPOUND": "COc1cc(Nc2ncc3c(n2)-c2ccc(Cl)cc2C(c2c(F)cccc2OC)=NC3)ccc1C(=O)O + NC1CCC(NC2CC2c2ccccc2)CC1", "viability, T/C / %": 73.9}
{"COMPOUND": "O=C(C=Cn1cnc(-c2cc(C(F)(F)F)cc(C(F)(F)F)c2)n1)NNc1cnccn1 + NC1CCC(NC2CC2c2ccccc2)CC1", "viability, T/C / %": 46.3}
{"COMPOUND": "Cn1ncnc1C1c2n[nH]c(=O)c3cc(F)cc(c23)NC1c1ccc(F)cc1 (stereo unspecified) + NC1CCC(NC2CC2c2ccccc2)CC1", "viability, T/C / %": 87.3}
{"COMPOUND": "CC1COCCN1c1cc(-c2ccnn2C)c2ccnc(-c3ccn[nH]3)c2n1 (stereo unspecified) + NC1CC1c1ccc(-c2cccc(O)c2)cc1", "viability, T/C / %": 45.5}
{"COMPOUND": "Nc1ncn(C2CC(O)C(CO)O2)c(=O)n1 (stereo unspecified) + NC1CCC(NC2CC2c2ccccc2)CC1", "viability, T/C / %": 87.6}
{"COMPOUND": "CC[C@@]1(O)C(=O)OCc2c1cc1n(c2=O)Cc2cc3c(CN(C)C)c(O)ccc3nc2-1 + NC1CC1c1ccc(-c2cccc(O)c2)cc1", "viability, T/C / %": 52}
{"COMPOUND": "Cn1ncnc1C1c2n[nH]c(=O)c3cc(F)cc(c23)NC1c1ccc(F)cc1 (stereo unspecified) + NC1CC1c1ccc(-c2cccc(O)c2)cc1", "viability, T/C / %": 85.1}
{"COMPOUND": "CC1COCCN1c1cc(-c2ccnn2C)c2ccnc(-c3ccn[nH]3)c2n1 (stereo unspecified) + NC1CCC(NC2CC2c2ccccc2)CC1", "viability, T/C / %": 64.1}
{"COMPOUND": "CC(C)CC(NC(=O)C(Cc1ccccc1)NC(=O)c1cnccn1)B(O)O (stereo unspecified) + NC1CC1c1ccc(-c2cccc(O)c2)cc1", "viability, T/C / %": 3.4}

The measured values listed here are drawn from PubChem BioAssay AID1918939.
